# ASSAYED_TARGET: ER ectodomain (ERΔK-GFP) (Arabidopsis thaliana, UniProt Q42371)
# Sequence (Q42371 25-580 limits assumed, stated change not applied): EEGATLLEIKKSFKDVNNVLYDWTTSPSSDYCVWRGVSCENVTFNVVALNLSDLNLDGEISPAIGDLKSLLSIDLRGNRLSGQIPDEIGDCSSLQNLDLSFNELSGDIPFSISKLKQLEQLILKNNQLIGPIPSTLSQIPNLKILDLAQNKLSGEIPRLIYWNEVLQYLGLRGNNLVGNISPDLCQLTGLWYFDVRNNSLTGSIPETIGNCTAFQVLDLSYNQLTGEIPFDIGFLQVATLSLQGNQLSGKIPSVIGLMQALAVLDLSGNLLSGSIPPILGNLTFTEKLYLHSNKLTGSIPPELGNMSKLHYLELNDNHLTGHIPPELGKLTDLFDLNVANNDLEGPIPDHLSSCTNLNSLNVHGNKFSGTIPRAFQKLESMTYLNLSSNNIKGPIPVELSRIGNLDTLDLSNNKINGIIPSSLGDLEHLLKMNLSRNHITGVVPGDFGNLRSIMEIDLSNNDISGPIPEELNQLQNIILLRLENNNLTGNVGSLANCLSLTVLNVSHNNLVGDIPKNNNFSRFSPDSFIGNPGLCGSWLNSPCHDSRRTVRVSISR
# TEST_DESCRIPTION: Ligand competition assay, Stomagen vs MEPF2-MYC-HIS for binding to ER
Bridges are numbered along the chain shown (N, C = ends). Where no end group is shown, it is not given here.
OBSERVATION_TYPE: pIC50
Hey, just a heads up that pIC50 is the negative log base 10 of the concentration in molar.

Fill in: pIC50 of IGSTAPTCTYNECRGCRYKCRAEQVPVEGNDPINSAYHYRCVCHR (disulfide 8-41, 13-20, 16-43) [Stomagen] is ___
6.34
